tested on: OVCAR-3; assay: NCI tumour cell line growth inhibition, 48 h
The source made the active and inactive calls. Cut-off read from the data, not from the text of the source: active = GI50 up to about 1.1 µM and inactive = higher.
testReadout: GI50

Solved cases below.
{"compound": "COC(=O)CSc1nnc(-c2ccccc2)[nH]1", "systemUnderTest": "OVCAR-3", "valueObserved": "> 100 µM (inactive)"}
{"compound": "COP(C)(=O)/C(Cc1ccccc1)=N\\O (stereo not given)", "systemUnderTest": "OVCAR-3", "valueObserved": "> 100 µM (inactive)"}

Below are 8 compounds. Give each one its GI50.
1. Cc1ccc(S(=O)(=O)N/N=C2\C=C[C@]3(CC2)C(=O)N(C)c2ccccc23)cc1
2. O=[N+]([O-])c1cccnc1NCC1(CO)CC(Cc2ccccc2)C1 (stereo not given)
3. O=S(=O)([N-]c1nc2ccccc2nc1-[n+]1ccccc1)c1ccccc1
4. O=C(/C=C/c1ccccc1O)c1ccc([N+](=O)[O-])cc1
5. C=Cc1cnc([N+](=O)[O-])n1C
6. Cc1ccc2nc3ccccc3c(C3C4C(=O)N(c5ccc(F)cc5)C(=O)C4ON3C(C(N)=O)c3ccccc3)c2c1 (stereo not given)
7. C=CC(=O)C#CC#CC/C=C\CCCCCCC
8. CCCCCCc1cc2cc(C(=O)Nc3nc(C45CC6CC(CC(C6)C4)C5)cs3)c(=O)oc2cc1O

Result:
> 100 µM (inactive)
> 100 µM (inactive)
> 100 µM (inactive)
12.4 µM (inactive)
69.7 µM (inactive)
26.7 µM (inactive)
> 20.6 µM (inactive)
13.1 µM (inactive)

# per-item lookup of GI50; items listed below
1. O=C1c2ccccc2C(=O)N1CC1(C(=O)O)NCCS1(=O)=O (stereo not given)
2. COc1cc2c(cc1O)CC1c3c(cc(O)c(OC)c3-2)CCN1C (stereo not given)
3. O=C(N/N=C1\C(=O)Nc2ccc(Br)cc21)/C(O)=C/C(=O)c1ccc(Cl)cc1

Result:
1: > 100 µM (inactive); 2: 98.9 µM (inactive); 3: 22.4 µM (inactive)

Okay, here is my list. What is GI50 for each of these?
1. COc1ccc(C(=O)N2CCN(c3ccc4c(c3)OCC(=O)N4)CC2)cc1OC
2. O=C(NNS(=O)(=O)c1ccccc1)c1cccnc1

Result:
1. > 100 µM (inactive)
2. > 100 µM (inactive)

Parameter requested: GI50. Apply to each item below.
1. Oc1cc(O)c2c(c1)O[C@H](c1ccc(O)c(O)c1)[C@@H](O)C2 [CIANIDANOL]
2. CC(C)Oc1cccc(N2C(n3ccnc3)=Nc3ccncc3S2(=O)=O)c1
3. CCC1CCC2C3CC=C4CC(OC(C)=O)C(N)CC4(C)C3CCC12C (stereo not given)
4. C=C1COC(/C=C(\C)CC/C=C(\C)CCl)C1 (stereo not given)
5. COC(=O)/C=C(\C)CC/C=C(\C)CCC1OC1(C)C (stereo not given)

Result:
1: > 100 µM (inactive); 2: 9.35 µM (inactive); 3: 5.85 µM (inactive); 4: > 100 µM (inactive); 5: 11.7 µM (inactive)
